These entries and their values trace back to patent US4885239A.

testName: E1/2 (reduction potential) of the quinone nucleus of RIND compounds
Assay type: physicochemical
protocolConditions: quinone nucleus with hydrogen in place of the side chain; (*) in acetonitrile, saturated calomel electrode
Listed here are molecules together with their documented E1/2.
Numbers only here, please. The scale is mV.

Prompt: Tell me its E1/2 given CCCCCCCCCCNS(=O)(=O)c1ccc(C(C)C2=C(CN(C)C(=O)Oc3ccc4c(C)cc(=O)oc4c3)C(=O)C(C(C)c3ccc(S(=O)(=O)NCCCCCCCCCC)cc3)=C(CN(C)C(=O)Oc3ccc4c(C)cc(=O)oc4c3)C2=O)cc1 (stereo not shown) as the entry.
Completion: -528

Prompt: Write down E1/2 measured for item CCCCCCCCCCNS(=O)(=O)c1ccc(C(C)C2=C(CN(C)C(=O)Oc3ccc(N=Nc4ccc([N+](=O)[O-])cc4S(C)(=O)=O)c4c(NS(=O)(=O)c5cccc(S(N)(=O)=O)c5)cccc34)C(=O)C(C(C)c3ccc(S(=O)(=O)NCCCCCCCCCC)cc3)=C(CN(C)C(=O)Oc3ccc(N=Nc4ccc([N+](=O)[O-])cc4S(C)(=O)=O)c4c(NS(=O)(=O)c5cccc(S(N)(=O)=O)c5)cccc34)C2=O)cc1 (stereo not shown)
Completion: -528

Prompt: Given the molecule `CN(CC1=C(c2ccccc2)C(=O)C(CN(C)C(=O)Oc2ccc(N=Nc3ccc([N+](=O)[O-])cc3S(C)(=O)=O)c3c(NS(=O)(=O)c4cccc(S(N)(=O)=O)c4)cccc23)=C(c2ccccc2)C1=O)C(=O)Oc1ccc(N=Nc2ccc([N+](=O)[O-])cc2S(C)(=O)=O)c2c(NS(=O)(=O)c3cccc(S(N)(=O)=O)c3)cccc12` , write its reported E1/2.
Completion: -460

Prompt: Return value of E1/2 for input CCCCCCCCCCNS(=O)(=O)c1ccc(C(C)C2=C(CN(C)C(=O)Oc3ccc(N=Nc4cccc(S(N)(=O)=O)c4)c4c(NS(C)(=O)=O)cccc34)C(=O)C(C(C)c3ccc(S(=O)(=O)NCCCCCCCCCC)cc3)=C(CN(C)C(=O)Oc3ccc(N=Nc4cccc(S(N)(=O)=O)c4)c4c(NS(C)(=O)=O)cccc34)C2=O)cc1 (stereo not shown) , no commentary.
Completion: -528
